- ASSAY_TARGET: UniProt:P05186
- Sequence (P05186 whole entry): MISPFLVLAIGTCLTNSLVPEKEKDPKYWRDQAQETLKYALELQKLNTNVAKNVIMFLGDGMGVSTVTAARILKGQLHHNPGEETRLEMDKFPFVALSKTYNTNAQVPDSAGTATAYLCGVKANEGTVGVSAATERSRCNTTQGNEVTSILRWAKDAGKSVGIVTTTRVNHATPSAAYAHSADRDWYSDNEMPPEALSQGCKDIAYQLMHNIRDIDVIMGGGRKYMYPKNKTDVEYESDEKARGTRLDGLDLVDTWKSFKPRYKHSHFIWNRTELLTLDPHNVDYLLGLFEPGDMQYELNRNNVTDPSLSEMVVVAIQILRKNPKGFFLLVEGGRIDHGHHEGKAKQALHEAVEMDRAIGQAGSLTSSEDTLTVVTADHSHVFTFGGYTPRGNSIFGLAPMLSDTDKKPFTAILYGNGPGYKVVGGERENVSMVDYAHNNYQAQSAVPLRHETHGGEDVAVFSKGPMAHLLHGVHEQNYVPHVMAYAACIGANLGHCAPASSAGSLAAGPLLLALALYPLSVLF
- METHOD_SUMMARY: human TNAP enzyme inhibitors, SAR follow-up, biochemical, luminescent, dose response (AID 1056)
The source made the active and inactive calls.
Result category, one only: class 1 for active, class 0 for inactive

# count of solved cases: 5
COMPOUND: Cc1ccc(S(=O)(=O)Nc2cnc3ccccc3c2)cc1
CATEGORY_LABEL: class 1
//
COMPOUND: Cc1n[nH]c2c1C(=O)CC(C)(C)C2
CATEGORY_LABEL: class 1
//
COMPOUND: CCN(CC)C(=O)c1cc(-c2cc(F)c(Cl)cc2Cl)n[nH]1
CATEGORY_LABEL: class 1
//
COMPOUND: Nc1nc(N2C(=O)C3CC=CCC3C2=O)nn1-c1ccccc1 (stereo unspecified)
CATEGORY_LABEL: class 0
//
COMPOUND: COc1ccc2c(c1OC)C(=O)N(c1nnc(SC)[nH]1)C2=O
CATEGORY_LABEL: class 1

stdin: Hey, what did the test say about "c1ccc(Cn2cnc(-c3cccnc3)c2)cc1" ?
stdout: class 0

====

- ASSAY_TARGET: Heat shock factor protein 1 (Mus musculus)
- Sequence (P38532 whole entry): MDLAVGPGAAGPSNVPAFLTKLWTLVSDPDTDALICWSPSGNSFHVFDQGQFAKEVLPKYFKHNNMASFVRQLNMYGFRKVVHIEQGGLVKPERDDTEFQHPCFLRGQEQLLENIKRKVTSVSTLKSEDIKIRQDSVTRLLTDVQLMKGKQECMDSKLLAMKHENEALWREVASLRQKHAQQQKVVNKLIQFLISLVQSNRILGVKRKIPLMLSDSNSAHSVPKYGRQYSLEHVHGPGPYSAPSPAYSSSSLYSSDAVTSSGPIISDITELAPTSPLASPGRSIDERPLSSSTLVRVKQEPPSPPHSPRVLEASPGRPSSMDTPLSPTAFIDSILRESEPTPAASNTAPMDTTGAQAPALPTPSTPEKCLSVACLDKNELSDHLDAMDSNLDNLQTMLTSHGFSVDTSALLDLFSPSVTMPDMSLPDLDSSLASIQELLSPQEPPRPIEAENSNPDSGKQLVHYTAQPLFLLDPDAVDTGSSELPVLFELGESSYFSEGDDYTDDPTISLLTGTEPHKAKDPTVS
- METHOD_SUMMARY: inhibition of MG132-induced HSE-luciferase signal, confirmation, cell-based, NIH3T3, luminescence, dose retest (AID 2382);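 note: NIH3T3 fibroblasts with HSF1-driven luciferase reporter stressed by proteasome inhibitor MG132; luminescence from HSF1-driven luciferase expression after 8 hours of MG132 stress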
- Type: functional
The source made the active and inactive calls.
OUTCOME_MEASURE: EC50

MOLECULE: O=C(O)CC(Cc1ccc(Br)cc1)C(=O)O (stereo not given)
ENDPOINT_RESULT: > 195 µM (not active)
//
MOLECULE: COC(=O)c1cc2ccsc2n1Cc1nc(-c2ccc(Cl)cc2)oc1C
ENDPOINT_RESULT: > 195 µM (not active)
//
MOLECULE: COc1cccc(CNC(=O)Cn2c(=O)c3cccn3c3ccccc32)c1
ENDPOINT_RESULT: > 195 µM (not active)

Count: 6. Required value per item: EC50.
1. Cc1nn2c(CN(C(=O)CN3CCOCC3)c3ccccc3)nnc2c2ccccc12
2. Cc1ccc2nc(-c3ccccc3NC(=O)CCC(=O)O)c(O)nc2c1
3. O=C(Cn1cnc2c(nnn2Cc2ccc(Cl)cc2)c1=O)N1CCCc2ccccc21
4. Cc1nc(-c2ccc(Cl)cc2)sc1C1(C)CC(c2ccc(Cl)cc2)=NO1 (stereo not given)
5. COc1ccccc1C(=O)N(CCC1CCCN1C)c1nc2ccccc2s1 (stereo not given)
6. Cc1ccc(/C=C2\SC(=S)N(CCCC(=O)Nc3ccccn3)C2=O)cc1

stdout:
["> 195 µM (not active)", "> 195 µM (not active)", "> 195 µM (not active)", "> 195 µM (not active)", "< 0.16 µM (active)", "1.51 µM (active)"]

Would you mind listing EC50 for each of the following molecules?
1. O=C(CSc1nc2cc(Cl)ccc2s1)Nc1cccc(S(=O)(=O)N2CCOCC2)c1
2. Cc1ccc(Cn2ncc3c(N4CCN(C)CC4)ncnc32)cc1
3. CSc1ncc(C(=O)Nc2cccnc2)c(C(F)(F)F)n1
4. COc1ccc(N2CCN(CCCn3c(=S)[nH]c4ncccc4c3=O)CC2)cc1
5. CCCN1C(=O)/C(=C\c2ccncc2)S/C1=N/c1ccccc1
6. Nn1c(=O)c2ccccc2n2c(SCc3ccccc3)nnc12

stdout:
1: > 195 µM (not active); 2: > 195 µM (not active); 3: > 195 µM (not active); 4: > 195 µM (not active); 5: > 195 µM (not active); 6: > 195 µM (not active)

For each of the molecules below, note its EC50.
1. COC(=O)[C@H]1[C@H]2C[C@@H]3c4[nH]c5cc(OC)ccc5c4CCN3C[C@H]2C[C@@H](OC(=O)c2ccc(N)cc2)[C@@H]1OC
2. COc1cc(NC(=O)c2cc3cccc(OC)c3o2)cc(C(=O)Nc2cccc(C(F)(F)F)c2)c1

stdout:
> 195 µM (not active)
3.5 µM (active)

Could you tell me EC50 for each of these molecules? They are listed below.
1. CN(C)/C=C/C(=O)c1ccc(-c2ccc(Cl)cc2Cl)o1
2. Cc1ccc(C)c(NC(=O)COc2coc(CN3CCc4ccccc4C3)cc2=O)c1
3. NC(=O)C1CCN(c2ccnc3cc(Cl)ccc23)CC1
4. O=C1CC(c2nc3ccccc3[nH]2)CN1c1ccccc1F (stereo not given)
5. COCCn1c(C)cc(C2=NN=C(Nc3ccccc3F)SC2)c1C

stdout:
> 195 µM (not active)
> 195 µM (not active)
> 195 µM (not active)
> 195 µM (not active)
< 0.16 µM (active)

====

- ASSAY_TARGET: Casein kinase I isoform delta (Homo sapiens)
- Sequence (P48730 whole entry, canonical isoform): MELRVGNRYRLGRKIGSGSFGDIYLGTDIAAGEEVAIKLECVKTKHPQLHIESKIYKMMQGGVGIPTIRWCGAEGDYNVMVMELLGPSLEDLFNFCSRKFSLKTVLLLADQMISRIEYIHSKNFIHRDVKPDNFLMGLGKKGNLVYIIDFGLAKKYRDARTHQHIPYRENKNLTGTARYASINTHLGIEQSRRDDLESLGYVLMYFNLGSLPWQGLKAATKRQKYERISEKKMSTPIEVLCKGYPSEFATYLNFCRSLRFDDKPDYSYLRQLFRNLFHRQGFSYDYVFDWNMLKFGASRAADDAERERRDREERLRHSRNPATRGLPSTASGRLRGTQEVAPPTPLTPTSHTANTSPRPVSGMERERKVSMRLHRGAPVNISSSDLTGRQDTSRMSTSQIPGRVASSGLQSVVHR
- Format: functional
Activity calls are given as the source filed them.
Your answer must be one of the following: yes (1) for active, no (0) for inactive

COMPOUND: Cc1ccc(-n2nc(C(C)(C)C)cc2NC(=O)Nc2ccc(OCCN3CCOCC3)c3ccccc23)cc1
ASSAY_TARGET: Casein kinase I isoform delta (Homo sapiens)
CATEGORY_LABEL: no (0)

COMPOUND: c1cncc(Nc2ncc(-c3ccncn3)c(-c3ccco3)n2)c1
ASSAY_TARGET: Casein kinase I isoform delta (Homo sapiens)
CATEGORY_LABEL: yes (1)

COMPOUND: NC(COc1cncc(-c2ccc3c(c2)C(=Cc2ccco2)C(=O)N3)c1)Cc1c[nH]c2ccccc12 (centres undefined)
ASSAY_TARGET: Casein kinase I isoform delta (Homo sapiens);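 note: measured as one member (CSNK1D) of a kinome panel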
CATEGORY_LABEL: yes (1)

Would you kindly look at the next entry?
stdin: Give the logged outcome of this assay for the following compound: "NC(=O)c1cc(-c2ccnc(N)n2)[nH]c1-c1ccc(Cl)cc1Cl"
stdout: yes (1)

====

- ASSAY_TARGET: Intestinal-type alkaline phosphatase (Mus musculus, UniProt P24822)
- Sequence (P24822 whole entry): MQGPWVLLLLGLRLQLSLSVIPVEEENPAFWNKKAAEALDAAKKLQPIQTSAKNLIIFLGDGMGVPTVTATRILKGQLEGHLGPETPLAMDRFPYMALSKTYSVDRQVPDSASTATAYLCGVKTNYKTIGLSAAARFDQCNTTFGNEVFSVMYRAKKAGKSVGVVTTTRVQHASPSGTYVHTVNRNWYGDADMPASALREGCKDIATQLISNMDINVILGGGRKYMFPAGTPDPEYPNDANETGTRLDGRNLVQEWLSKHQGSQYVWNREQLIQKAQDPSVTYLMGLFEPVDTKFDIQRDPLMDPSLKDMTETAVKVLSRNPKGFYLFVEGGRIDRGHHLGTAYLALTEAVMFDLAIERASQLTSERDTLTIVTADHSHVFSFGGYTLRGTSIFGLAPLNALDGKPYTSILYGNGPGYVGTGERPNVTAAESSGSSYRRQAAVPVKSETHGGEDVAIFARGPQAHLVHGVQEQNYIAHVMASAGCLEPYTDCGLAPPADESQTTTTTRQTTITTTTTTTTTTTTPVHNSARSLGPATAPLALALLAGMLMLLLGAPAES
- METHOD_SUMMARY: PubChem AID 488785
- Assay type: functional
Active and inactive are the calls of the source.
Assignment: determine reported IC50 for the given compounds.

Respectfully, I request IC50 for each entry included below.
1. CCOc1cc(/C=C2\CCC/C(=C\c3cc(Cl)c(O)c(OCC)c3)C2=O)cc(Cl)c1O
2. O=c1oc2cc(O)ccc2s1
3. CC(C)c1ccc(NC(=O)NC2CCN(CC(=O)Nc3cccc4ccccc34)CC2)cc1
4. C/N=c1\scc(-c2ccco2)n1/N=C/c1ccc(O)c(O)c1

stdout:
["7.08 µM (active)", "2.59 µM (active)", "10.8 µM (active)", "1.7 µM (active)"]

Form field IC50, entry "CCN(c1ccccc1)S(=O)(=O)c1ccc2[nH]c(=O)[nH]c2c1" : 3.89 µM (active)

====

- METHOD_SUMMARY: intracellular Trypanosoma cruzi inhibitors in host cells – cell-based, plate reader, cherry-pick samples, set 3, dose response (AID 651818);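 note: compounds incubated with infected cells for about four days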
- Type: functional
Activity calls are given as the source filed them.
In this exercise, the only acceptable responses are TRUE (active), FALSE (inactive)

Record excerpt, results attached:
STRUCTURE_SMILES: C[C@@H]1CN([C@H](C)CO)C(=O)c2cccc(NS(=O)(=O)c3ccc(Cl)cc3)c2O[C@@H]1CN(C)Cc1ccccc1
CATEGORY_LABEL: FALSE
--
STRUCTURE_SMILES: COc1ccc(S(=O)(=O)Nc2ccc3c(c2)CC(=O)N([C@H](C)CO)C[C@@H](C)[C@H](CN(C)CC2CCCCC2)O3)cc1
CATEGORY_LABEL: TRUE
--
STRUCTURE_SMILES: C[C@H](CO)N1C[C@H](C)[C@@H](CN(C)Cc2ccc(C(F)(F)F)cc2)Oc2c(NC(=O)Nc3ccc(F)cc3)cccc2C1=O
CATEGORY_LABEL: TRUE
--
STRUCTURE_SMILES: C[C@H](CO)N1C[C@H](C)[C@H](CN(C)C(=O)Nc2ccc(C(F)(F)F)cc2)Oc2c(NC(=O)c3nc4ccccc4s3)cccc2C1=O
CATEGORY_LABEL: TRUE
--
STRUCTURE_SMILES: C[C@H](CO)N1C[C@H](C)[C@@H](CN(C)Cc2ccc(C(=O)Nc3ccccc3N)cc2)Oc2c(NC(=O)c3cnccn3)cccc2C1=O
CATEGORY_LABEL: TRUE

stdin: Would you mind telling me which call this test gave "COc1ccc(CN(C)C[C@@H]2Oc3c(NC(=O)Nc4ccc(C(F)(F)F)cc4)cccc3C(=O)N([C@H](C)CO)C[C@H]2C)cc1" ?
stdout: TRUE
